// data source = paper PMC11879280

Reported MIC of antibiotics values for the following compounds.
Tested on: A. baumannii 007
measurement_parameters: A. baumannii 007; CAMHB, 37°C, 16–20 h
Could you give me the number in µg/mL? Just the number is fine.

# annotated cases, reported MIC of antibiotics shown
[
  {
    "compound": "CC(C)(O/N=C(\\C(=O)N[C@@H]1C(=O)N2C(C(=O)[O-])=C(C[n+]3ccccc3)CS[C@H]12)c1csc(N)n1)C(=O)O [Cefaz, ceftazidime, reference compound]",
    "MIC of antibiotics, µg/mL": 512
  },
  {
    "compound": "CO/N=C(\\C(=O)N[C@@H]1C(=O)N2C(C(=O)O)=C(COC(C)=O)CS[C@H]12)c1csc(N)n1 [Cefot, cefotaxime, reference compound]",
    "MIC of antibiotics, µg/mL": 512
  }
]

Incoming: Tell me reported MIC of antibiotics for C[C@@H](O)[C@H]1C(=O)N2C(C(=O)O)=C(S[C@@H]3CN[C@H](C(=O)N(C)C)C3)[C@H](C)[C@H]12 [Mer, meropenem, reference compound] , tested with A. baumannii 007.
Outgoing: 64

----------
Test system: horse red blood cells (RBCs)
assay_overview: Haemolysis assay
Assay type: cell-based
measurement_parameters: red cells of horse, 4 h
Square brackets hold non-standard residues; d marks the D form. Peptide text beside a SMILES is read from it. Nspe(4-Br) = C[C@H](NCC(=O)O)c1ccc(Br)cc1; N(tridecyl)Gly = CCCCCCCCCCCCCNCC(=O)O; Nspe = C[C@H](NCC(=O)O)c1ccccc1; Nlys = NCCCCNCC(=O)O
Reported HD10 (10% haemolytic dose) values for the following compounds.
Could you give me the number in µg/mL? Just the number is fine.

# annotated cases, reported HD10 (10% haemolytic dose) shown
[
  {
    "compound": "C[C@@H](c1ccc(Br)cc1)N(CC(=O)N(CCCCN)CC(=O)N(CC(=O)N(CC(=O)N(CCCCN)CC(N)=O)[C@@H](C)c1ccc(Br)cc1)[C@@H](C)c1ccccc1)C(=O)CN(C(=O)CNCCCCN)[C@@H](C)c1ccccc1 [TM12] (H-[Nlys][Nspe][Nspe(4-Br)][Nlys][Nspe][Nspe(4-Br)][Nlys]-NH2)",
    "HD10 (10% haemolytic dose) (µg/mL)": 80
  },
  {
    "compound": "C[C@@H](c1ccc(Br)cc1)N(CC(=O)N(CCCCN)CC(=O)N(CC(=O)N(CC(=O)N(CCCCN)CC(N)=O)[C@@H](C)c1ccc(Br)cc1)[C@@H](C)c1ccc(Br)cc1)C(=O)CN(C(=O)CNCCCCN)[C@@H](C)c1ccc(Br)cc1 [TM14] (H-[Nlys][Nspe(4-Br)][Nspe(4-Br)][Nlys][Nspe(4-Br)][Nspe(4-Br)][Nlys]-NH2)",
    "HD10 (10% haemolytic dose) (µg/mL)": 9.6
  }
]

API: the following record is the query input.
Incoming: Quick one: HD10 (10% haemolytic dose) for CCCCCCCCCCCCCNCC(=O)N(CCCCN)CC(=O)N(CC(=O)N(CC(=O)N(CCCCN)CC(=O)N(CCCCN)CC(N)=O)[C@@H](C)c1ccccc1)[C@@H](C)c1ccccc1 [TM15] (H-[N(tridecyl)Gly][Nlys][Nspe][Nspe][Nlys][Nlys]-NH2) ?
Outgoing: 23.6

----------
Tested on: S. aureus 38
measurement_parameters: 38
Square brackets hold non-standard residues; d marks the D form. Peptide text beside a SMILES is read from it. Nspe = C[C@H](NCC(=O)O)c1ccccc1; NDecylGly = CCCCCCCCCCNCC(=O)O; Nlys = NCCCCNCC(=O)O
attribute_measured: MIC of peptidomimetics (µM)
Could you give me the number in µM? Just the number is fine.

Incoming: Tell me reported MIC of peptidomimetics for CCCCCCCCCCNCC(=O)N(CCCCN)CC(=O)N(CC(=O)N(CC(=O)N(CCCCN)CC(=O)N(CC(=O)N(CC(N)=O)[C@@H](C)c1ccccc1)[C@@H](C)c1ccccc1)[C@@H](C)c1ccccc1)[C@@H](C)c1ccccc1 [TM8] (H-[NDecylGly][Nlys][Nspe][Nspe][Nlys][Nspe][Nspe]-NH2) , tested with S. aureus 38.
Outgoing: 3.5
